- Method Summary: plasma concentration of compound at one hour after the of intraperitoneal administration of 50 mg/kg
- Format: ADME, organism-based
- Parameters: dose 50 mg/kg, route intraperitoneal
- Settings: ip
Recorded Metric: concentration at 1 h

1. COc1cc(Nc2c(C#N)cnc3cc(OCCCN4CCOCC4)c(OC)cc23)c(Cl)cc1Cl : 100 ng/mL
2. COc1cc(Nc2c(C#N)cnc3cc(OCCCN4CCN(C)CC4)c(OC)cc23)c(Cl)cc1Cl : 3000 ng/mL
3. COc1cc(Nc2c(C#N)cnc3cc(OCCCn4ccnn4)c(OC)cc23)c(Cl)cc1Cl : 1300 ng/mL

----------
- Species on record: Rattus norvegicus
- Method Summary: Ability to inhibit the proliferation of c-Src transformed rat fibroblasts growing in suspension
- Assay type: functional
pIC50: −log10 of the molar value.
Recorded Metric: pIC50

1. COc1cc(Nc2c(C#N)cnc3cc(OCCCN(C)CCN(C)C)c(OC)cc23)c(Cl)cc1Cl : 6.19
2. COc1cc(Nc2c(C#N)cnc3cc(OCCCNCCN4CCOCC4)c(OC)cc23)c(Cl)cc1Cl : 5.92
3. COc1cc(Nc2c(C#N)cnc3cc(OCCCn4ccnc4)c(OC)cc23)c(Cl)cc1Cl : 5.85
4. COc1cc(Nc2c(C#N)cnc3cc(OCCCN4CCOCC4)c(OC)cc23)c(C)cc1Cl : 6.82
5. COc1cc(Nc2c(C#N)cnc3cc(OCCCN4CCOCC4)c(OC)cc23)c(Br)cc1Cl : 7.15
6. COc1cc(Nc2c(C#N)cnc3cc(OCCCN4CCOCC4)c(OC)cc23)c(C)cc1C : 6.80

----------
- Method Summary: plasma concentration of compound at four hour after the of intraperitoneal administration of 50 mg/kg
- Assay type: ADME, organism-based
- Parameters: dose 50 mg/kg, route intraperitoneal
- Settings: ip
Recorded Metric: concentration at 4 h (ng/mL)

1. COc1cc(Nc2c(C#N)cnc3cc(OCCCN4CCN(C)CC4)c(OC)cc23)c(Cl)cc1Cl [BOSUTINIB] : 900
2. COc1cc(Nc2c(C#N)cnc3cc(OCCCn4ccnn4)c(OC)cc23)c(Cl)cc1Cl : 300

----------
The compounds below have reported IC50 for Proto-oncogene tyrosine-protein kinase Src (Homo sapiens, UniProt P12931).
Recorded Metric: IC50 (nM)

1) COc1cc(Nc2c(C#N)cnc3cc(OCCCCCN4CCOCC4)c(OC)cc23)c(Cl)cc1Cl : 2.5
2) COc1ccc(Cl)c(Nc2c(C#N)cnc3cc(OCCCN4CCOCC4)c(OC)cc23)c1 : 1.6
3) COc1cc(Nc2c(C#N)cnc3cc(OCCCN4CCCN(C)CC4)c(OC)cc23)c(Cl)cc1Cl : 1.4
4) COc1cc(Nc2c(C#N)cnc3cc(OC)c(OC)cc23)c(C)cc1C : 4.6
5) COc1cc(Nc2c(C#N)cnc3cc(OCCCn4nccn4)c(OC)cc23)c(Cl)cc1Cl : 9.3
6) COc1cc(Nc2c(C#N)cnc3cc(OCCCN4CCOCC4)c(OC)cc23)c(Br)cc1Cl : 0.95
7) COc1cc(Nc2c(C#N)cnc3cc(OCCCN4CCN(CCO)CC4)c(OC)cc23)c(Cl)cc1Cl : 0.76
8) COc1cc(Nc2c(C#N)cnc3cc(OCCCN4CC(C)N(C)C(C)C4)c(OC)cc23)c(Cl)cc1Cl (configuration not stated) : 1.4
9) COc1cc(Nc2c(C#N)cnc3cc(OC)c(OC)cc23)c(Cl)cc1C : 2.9
10) COc1cc(Nc2c(C#N)cnc3cc(OCCCN(C)CCN(C)C)c(OC)cc23)c(Cl)cc1Cl : 2.3
11) COc1cc(Nc2c(C#N)cnc3cc(OCCN4CCOCC4)c(OC)cc23)c(Cl)cc1Cl : 2.3
12) COc1cc(Nc2c(C#N)cnc3cc(OCCCN4CCC(O)CC4)c(OC)cc23)c(Cl)cc1Cl : 0.64
13) CCOc1cc(Nc2c(C#N)cnc3cc(OC)c(OC)cc23)c(Cl)cc1Cl : 1200
14) COc1cc(Nc2c(C#N)cnc3cc(OC)c(OC)cc23)c(Br)cc1Cl : 3
15) COc1cc(Nc2c(C#N)cnc3cc(OC)c(OC)cc23)c(Cl)cc1Cl : 4.3
16) COc1cc(Nc2c(C#N)cnc3cc(OC)c(OC)cc23)c(C)cc1Cl : 4

Data origin, for the record: ChEMBL document CHEMBL1134270
